Target: GIST430/654 cell line expressing mutated constitutively active cKIT receptor tyrosine kinase (Δ560-576 deletion and V654A point mutation) (Homo sapiens, UniProt P10721, DEL560-576/V654A)
Construct: endogenous in cells
Sequence (P10721 with tags, fused parts or gaps DEL560-576/V654A): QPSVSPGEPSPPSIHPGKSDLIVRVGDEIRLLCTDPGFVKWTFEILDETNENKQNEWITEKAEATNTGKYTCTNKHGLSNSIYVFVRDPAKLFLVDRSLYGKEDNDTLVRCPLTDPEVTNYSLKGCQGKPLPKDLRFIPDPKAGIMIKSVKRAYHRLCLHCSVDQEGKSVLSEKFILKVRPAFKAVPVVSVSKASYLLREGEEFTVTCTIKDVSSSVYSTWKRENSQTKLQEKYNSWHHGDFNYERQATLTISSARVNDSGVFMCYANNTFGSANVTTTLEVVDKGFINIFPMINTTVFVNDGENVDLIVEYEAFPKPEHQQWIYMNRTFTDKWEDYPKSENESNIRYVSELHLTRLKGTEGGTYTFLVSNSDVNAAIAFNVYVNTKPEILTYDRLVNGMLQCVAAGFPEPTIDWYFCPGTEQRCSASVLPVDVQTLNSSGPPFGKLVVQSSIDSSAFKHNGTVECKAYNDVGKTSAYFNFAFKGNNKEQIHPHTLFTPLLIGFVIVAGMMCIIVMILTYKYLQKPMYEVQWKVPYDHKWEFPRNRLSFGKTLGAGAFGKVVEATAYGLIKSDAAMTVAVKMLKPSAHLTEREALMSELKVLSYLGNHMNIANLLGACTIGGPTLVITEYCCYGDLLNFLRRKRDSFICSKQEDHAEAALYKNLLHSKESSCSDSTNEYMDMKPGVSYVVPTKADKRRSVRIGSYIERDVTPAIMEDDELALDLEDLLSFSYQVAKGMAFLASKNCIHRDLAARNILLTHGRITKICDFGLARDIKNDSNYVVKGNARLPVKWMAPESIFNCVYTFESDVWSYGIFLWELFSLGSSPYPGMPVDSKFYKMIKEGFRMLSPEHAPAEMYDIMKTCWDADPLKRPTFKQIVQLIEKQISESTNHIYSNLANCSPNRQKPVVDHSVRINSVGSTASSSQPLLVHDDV
Assay: Cellular cKIT autophosphorylation (phospho-Y307-cKIT, Luminex bead assay) in GIST430/654 cells
Conditions: compounds 45 min, read-out: GIST 430/654 IC50
pIC50: −log10 of the molar value.
endpointName: pIC50

[A] CC(Nc1cc(-c2cnc3cc(OCCCN4CCC4)ccn23)ncn1)c1ccc(-c2cnn(C)c2)cc1 (centres unmarked) [A249]
[B] Cc1nc(-c2ccc(CNc3cc(-c4cnc5cc(OCCCN6CCCC6)ccn45)ncn3)cc2)co1 [A242]
Given A and B , report the one with the higher recorded pIC50. Indicate your choice by writing its label.
A
(A: 6.36, B: 5.00)

[a] Cn1cc(-c2ccc(CNc3cc(-c4cnc5cc(OCCCN6CC(F)(F)C6)ccn45)ncn3)cc2)cn1 [A142]
[b] COc1ccn2c(-c3cc(NCc4ccc(N5CCCCC5=O)cc4)ncn3)cnc2c1 [A12]
Input pair: a , b . Output: entry with lower pIC50. Indicate your choice by writing its label.
b
(b: 5.96, a: 7.19)

---

Target: c-Kit(V654A) (Homo sapiens, UniProt P10721, V654A)
Construct: recombinant human c-Kit, amino acids 544-end containing the V654A mutation; GST (N)
Sequence (P10721 544-976 V654A): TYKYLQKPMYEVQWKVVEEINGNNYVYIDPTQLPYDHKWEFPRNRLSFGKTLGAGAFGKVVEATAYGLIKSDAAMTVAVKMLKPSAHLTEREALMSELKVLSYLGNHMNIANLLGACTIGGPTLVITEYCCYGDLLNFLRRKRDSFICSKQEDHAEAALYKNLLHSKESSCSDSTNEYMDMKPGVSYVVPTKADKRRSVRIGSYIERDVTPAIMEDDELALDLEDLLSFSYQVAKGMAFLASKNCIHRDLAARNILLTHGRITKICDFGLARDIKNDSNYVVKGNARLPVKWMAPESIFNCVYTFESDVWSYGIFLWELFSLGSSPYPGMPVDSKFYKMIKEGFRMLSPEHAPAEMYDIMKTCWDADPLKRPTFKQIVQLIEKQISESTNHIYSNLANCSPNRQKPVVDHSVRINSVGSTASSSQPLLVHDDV
Experiment: c-Kit(V654A) assay (33P-ATP filter binding kinase assay)
Conditions: recombinant human c-Kit aa 544-end V654A, ATP 200 μM
pIC50: −log10 of the molar value.
endpointName: pIC50

Consider the reported pIC50 for these molecules:
1. Cn1cc(-c2ccc(CNc3cc(-c4cnc5cc(OCC(C)(C)N)ccn45)ncn3)cc2)cn1 [A104] | 8.15
2. Cc1nc(-c2ccc(CNc3cc(-c4cnc5cc(OCCN6CCC(=O)N(C)CC6)ccn45)ncn3)cc2)co1 [A261] | 8.68
3. Cn1cc(-c2ccc(CNc3cc(-c4cnc5cc(OCCN6CCN(C7COC7)CC6)ccn45)ncn3)cc2)cn1 [A65] | 7.96
4. COc1ccn2c(-c3cc(NCc4ccc(-c5cccnc5)cc4)ncn3)cnc2c1 [A6] | 8.19
5. c1ccn2c(-c3cc(NCc4ccc(-n5cccn5)cc4)ncn3)cnc2c1 [A9] | 8.66
6. Cn1cc(-c2ccc(CNc3cc(-c4cnc5cc(OCCN6CCC(C)(C#N)CC6)ccn45)ncn3)cc2)cn1 [A222] | 7.77
7. CN1CCC(CCOc2ccn3c(-c4cc(NCc5ccc(-c6cnn(C)c6)cc5)ncn4)cnc3c2)CC1 [A129] | 8.21
8. Cn1cc(-c2ccc(CNc3cc(-c4cnc5cc(F)ccn45)ncn3)cc2)cn1 [H1] | 7.92
9. CN1CCN(CCOc2ccn3c(-c4cc(NCc5ccc(-c6cnn(C)c6)cc5)ncn4)cnc3c2)CC1 [A61] | 8.19
10. COC1(C)CCN(CCOc2ccn3c(-c4cc(NCc5ccc(-c6cnn(C)c6)cc5)ncn4)cnc3c2)CC1 [A220] | 7.96

[1] CN1CCN(CCOc2ccn3c(-c4cc(OCc5ccc(-c6cnn(C)c6)cc5)ncn4)cnc3c2)CC1 [A86]
[2] Cn1cc(-c2ccc(CNc3cc(-c4cnc5cc(OCC6CCN(C7COC7)CC6)ccn45)ncn3)cc2)cn1 [A78]
[3] Cn1ncc(-c2ccc(CNc3cc(-c4cnc5cc(OCC6CCNCC6)ccn45)ncn3)cc2)n1 [A165]
Arrange items by their pIC50 values in increasing order. Field: ranking. Enter the labels in the order requested.
2, 1, 3
(2: 8.04, 1: 8.30, 3: 8.70)

[P] F[C@@H]1CCN(c2ccc(CNc3cc(-c4cnc5ccccn45)ncn3)cn2)C1 [A153]
[Q] CN1CCC(COc2ccn3c(-c4cc(NCc5ccc(-c6cnn(C)c6)cc5)ncn4)cnc3c2)CC1 [A62]
Given P and Q , report the one with the higher recorded pIC50. Indicate your choice by writing its label.
Q

[I] Cn1cc(-c2ccc(CNc3cc(-c4cnc5cc(OCCN6CC7(COC7)C6)ccn45)ncn3)cc2)cn1 [A114]
[II] Cc1cc(N2CC[C@@H](F)C2)ncc1CNc1cc(-c2cnc3ccccn23)ncn1 [A156]
Given I and II , report the one with the higher recorded pIC50. Indicate your choice by writing its label.
I
(I: 8.03, II: 6.74)
